protocol: Half life in human plasma
Format: ADME, cell-free
Listed next: entries and their corresponding log10(half-life).
measurement-type: log10(half-life) (log10 of the value in h)

| compound | recorded-value |
| --- | --- |
| CC(=O)N(c1onc(C)c1C)S(=O)(=O)c1ccc(N)cc1 [SULFISOXAZOLE ACETYL] | -2.30 |
| CCCCOC(=O)[C@@H](N)Cc1ccc(O)c(O)c1 | 0.20 |
| COC(=O)O[C@]1(C(=O)OCCl)CC[C@H]2[C@@H]3CCC4=CC(=O)CC[C@]4(C)[C@H]3[C@@H](O)C[C@@]21C | 1.20 |
| CCN(CC)CC(=O)N(COC(=O)C(C)(C)C)c1c(C)cccc1C | 0.67 |
| Cc1cn([C@H]2C=C[C@@H](COC(=O)CNNC(=O)c3ccncc3)O2)c(=O)[nH]c1=O | 0.00 |
| Cc1ncc([N+](=O)[O-])n1CCOC(=O)CN1CCC(c2ccccc2)CC1 | 0.36 |
| O=C(OC[C@H]1O[C@@H](n2cc(F)c(=O)[nH]c2=O)C[C@@H]1OC(=O)[C@@H]1CCCN1)[C@@H]1CCCN1 | -1.00 |
| COc1ccccc1OC(=O)c1ccccc1Nc1cccc(C)c1C [MEFENAMIC ACID GUAIACOL ESTER] | 1.18 |
| COC(=O)[C@H](Cc1ccc(O)c(O)c1)NC(=O)CCCC[C@@H]1CCSS1 | 0.21 |
